System: BV173 cells (p210-BCR-ABL)
Test: XTT cell viability, BV173
Format: cell-based, human
Settings: BV173, XTT, estimated
PARAMETER: IC50

Request the reported IC50 associated with COc1ccc(C(=O)N2CCN(c3cc(Nc4ccc(OC(F)(F)F)cc4)ncn3)CC2)cc1OC [Compound 16]
~2000 nM

Cited source: patent US20250228851A1
